Test system: EKVX NSCLC
Measurement Description: NCI-60 one-dose screen, 48 h (100 = growth as untreated, 0 = no growth, -100 = all killed)
Experimental Context: 10 µM unless noted
The panel holds about 83,000 compounds, 20% with a hit somewhere; the sample as a whole holds those more often.
For each entry below, report its growth value.
Please state the figure in %; there is no need to write the unit.

EKVX NSCLC / growth / `CCCCn1sc(=O)n(Cc2ccc(CNC(=O)OCc3ccc4c(Cl)cc(Cl)c(O)c4n3)cc2)c1=O` : value? 86.7

EKVX NSCLC / growth / `Cc1ncc(C(=O)Nc2ccc(CN3CCN(C)CC3)c(C(F)(F)F)c2)cc1C#Cc1cnc(N)c2cnccc12` : value? 21.5

EKVX NSCLC / growth / `Cc1nn(-c2ccccc2)c(N2CCCCC2)c1/C=N/NC(=O)Cn1c(=O)sc2ccccc21` : value? 74.5

EKVX NSCLC / growth / `CCNCc1ccc(O)c2ncccc12` : value? 25.1

EKVX NSCLC / growth / `Cn1cccc1/C=C1\C(=O)Nc2ccccc21` : value? 34.4

EKVX NSCLC / growth / `O=C(Nc1ncc(Cc2ccccc2Cl)s1)c1cccs1` : value? 77.7

EKVX NSCLC / growth / `O=C1NC(=O)c2c1c1c3ccccc3[nH]c1c1oc3cc(Br)ccc3c21` : value? 69.9

EKVX NSCLC / growth / O=C(/C=C/C12c3ccccc3C(c3ccccc31)C1C(=O)NC(=O)C12)c1ccccn1 (configuration not stated) : value? 19.6

EKVX NSCLC / growth / `COc1cc2c3c(c1O)-c1ccccc1[C@@H]1OC(=O)N(CC2)[C@H]31` : value? 104

EKVX NSCLC / growth / `COc1ccc(C/C(C)=C(\c2ccc(O)cc2)c2ccc(OCCN3CCCC3)cc2)cc1` : value? 101

EKVX NSCLC / growth / CCN(CC)CCCC(C)Nc1ccc2cc(OC)ccc2n1 (configuration not stated) : value? 91.4

EKVX NSCLC / growth / `C/C(=N\O)C(=O)NCCCCCC(=O)Nc1ccccc1` : value? 98.2

EKVX NSCLC / growth / `C#CC#CC#CC#CC#CC#CC#CC#CC[C@H]1OC[C@@H](COC(=O)O[C@@H](C(=O)O[C@H]2C[C@@]3(O)[C@@H](OC(=O)c4ccccc4)[C@@H]4[C@]5(OC(C)=O)CO[C@@H]5C[C@H](O)[C@@]4(C)C(=O)[C@H](OC(C)=O)C(=C2C)C3(C)C)[C@@H](NC(=O)c2ccccc2)c2ccccc2)O1` : value? 75.4

EKVX NSCLC / growth / `CC1=C(C(=O)n2c3ccccc3c3ccccc32)C(c2cccc([N+](=O)[O-])c2)C(C(=O)n2c3ccccc3c3ccccc32)=C(C)N1` : value? 102

EKVX NSCLC / growth / `O=C(/C=C/c1ccc(Br)cc1)c1ccc(-n2cc(CN3CCN(c4cc5c(cc4F)c(=O)c(C(=O)O)cn5C4CC4)CC3)nn2)cc1` : value? 90.7

EKVX NSCLC / growth / `N#Cc1c(-c2cccc([N+](=O)[O-])c2)cc(-c2ccc(Nc3nc(Nc4ccc(F)cc4)nc(Nc4ccc(F)cc4)n3)cc2)nc1N` : value? 137

EKVX NSCLC / growth / CC12CCC(/C(=C/NNc3ccc([N+](=O)[O-])cc3[N+](=O)[O-])C1=O)C2(C)C (configuration not stated) : value? 90.8

EKVX NSCLC / growth / `Cn1c(O)c(C(/C=C/c2ccccc2)=Nc2ccccc2N)c(=O)n(C)c1=O` : value? 82

EKVX NSCLC / growth / `COc1cc(C(=O)c2c(N)ncn2-c2ccccc2)cc(OC)c1OC` : value? 102

EKVX NSCLC / growth / `CC(C)c1ccc(-n2c(=S)[nH]c3sc4c(c3c2=O)CCC(=O)C4)cc1` : value? 47

EKVX NSCLC / growth / `NS(=O)(=O)c1ccc(N/C=C/C(=O)c2cc3ccccc3oc2=O)cc1` : value? 84

EKVX NSCLC / growth / `COc1cc(/C=C2\C(=O)N(c3c(Cl)cccc3Cl)c3ccccc32)cc(OC)c1OCCCCCCn1c2ccccc2c(=O)c2ccccc21` : value? 111

EKVX NSCLC / growth / `COc1ccc(-c2ccc(=O)oc2C#Cc2cc(OC)c(OC)c(OC)c2)cc1O` : value? 30.3

EKVX NSCLC / growth / `O=C1NC(=O)c2c1c1c3ccccc3[nH]c1c1oc3ccc(F)cc3c21` : value? 56.4

EKVX NSCLC / growth / `CN(C)c1ccc(/C=C/C(=O)c2ccccc2)cc1` : value? 97.9

EKVX NSCLC / growth / `C=NNc1ccccc1` : value? 92.8

EKVX NSCLC / growth / `CN1CCN(Cc2ccc(NC(=O)c3cncc(C#Cc4cncc5[nH]ncc45)c3)cc2C(F)(F)F)CC1` : value? 26.3

EKVX NSCLC / growth / `N#C/C(=C\c1ccc(Br)cc1)c1cc2ccccc2[nH]1` : value? 91

EKVX NSCLC / growth / `COc1ccc(/C=C/C(=O)c2ccc(Nc3nc(Nc4ccc(F)cc4)nc(Nc4ccc(Cl)cc4)n3)cc2)cc1` : value? 86.2

EKVX NSCLC / growth / `C[C@@H]1CC[C@@]2(OC1)O[C@H]1C[C@H]3[C@@H]4CC=C5C[C@@H](O[C@@H]6O[C@H](CO)[C@@H](O[C@@H]7O[C@@H](CO)[C@H](O)[C@H]7O)[C@H](O)[C@H]6O[C@@H]6O[C@@H](C)[C@H](O)[C@@H](O)[C@H]6O)CC[C@]5(C)[C@H]4CC[C@]3(C)[C@H]1[C@@H]2C` : value? -66.6

EKVX NSCLC / growth / `CCCCCCCC/C=C\CCCCCCCCOc1ccc(CC(=O)NCC[N+](C)(C)C)cc1` : value? 87.8

EKVX NSCLC / growth / `O[C@@H](c1cc(C(F)(F)F)nc2c(C(F)(F)F)cccc12)[C@H]1CCCCN1` : value? 69.7

EKVX NSCLC / growth / Nc1ncnc2c1c(-c1ccc(Oc3ccccc3)cc1)nn2CC1SSCC1O (configuration not stated) : value? 4.11

EKVX NSCLC / growth / `CCOC(=O)c1ccc2c(c1)c1c(C)c3ccncc3c(C)c1n2C` : value? 10.3

EKVX NSCLC / growth / `Clc1nccc2c(-c3csc(-c4c[nH]c5ccccc45)n3)c[nH]c12` : value? 63.2

EKVX NSCLC / growth / `CC(C)c1ccc(C(=O)Nc2sc3cc(O)ccc3c2C#N)cc1` : value? 52.9

EKVX NSCLC / growth / Nc1n[nH]c2ccc([C@@H]3Nc4cc5[nH]ncc5cc4[C@H]4C5CCC(C5)[C@@H]34)cc12 (some centres not stated) : value? 35.2
